This document collects log10 of IC50 values reported for wild-type HIV-1 protease (Human immunodeficiency virus type 1 group M subtype B).
// do not treat as linear: log10 of IC50, unit nM

Worked examples, 5 compounds total:
N=C1NC(c2ccccc2)(c2ccccc2)C(=O)N1CCCCNC(=O)[C@@H](N)Cc1ccccc1    1.04
N#Cc1cccc(C[C@H](N)C(=O)NCCCCN2C(=N)NC(c3ccccc3)(c3ccccc3)C2=O)c1    1.34
COC(=O)N[C@@H](Cc1ccccc1)C(=O)N[C@H](CCCN1C(=N)N[C@](CC(C)C)(c2ccccc2)C1=O)C1CC1    0.95
COC(=O)N[C@@H](Cc1ccccc1)C(=O)NCCC[C@@H](C)N1C(=N)N[C@](CC(C)C)(c2ccccc2)C1=O    2.28
CCOC(=O)N[C@@H](Cc1ccccc1)C(=O)NCCCCN1C(=N)NC(c2ccccc2)(c2ccccc2)C1=O    0.60

[ask] Give its log10 of IC50 value. Item: COC(=O)N[C@@H](Cc1ccccc1)C(=O)NCCCCCN1C(=N)NC(c2ccccc2)(c2ccccc2)C1=O
[reply] 1.99

[ask] Give its log10 of IC50 value. Item: CC[C@@H](CCCN1C(=N)N[C@](CC(C)C)(c2ccccc2)C1=O)NC(=O)[C@H](Cc1ccc(Cl)cc1)NC(=O)OC
[reply] 1.15
